Tested on: Mus musculus
Experiment: Effect on uterus weight in ovariectomized mouse at 0.1103 mmol/kg, ip once daily for 4 weeks
Assay type: functional
Where a SMILES comes first, the peptide text is derived from it. The star is where a group is joined. Succinyl(O17-estradiol) = C[C@]12CC[C@@H]3c4ccc(O)cc4CC[C@H]3[C@@H]1CC[C@@H]2OC(=O)CCC(=O)*; X2 = C[C@]12CC[C@@H]3c4ccc(OCC(=O)*)cc4CC[C@H]3[C@@H]1CCC2=O
Record 1.0 whenever Activity is at 60 mg or higher; record 0.0 when lower.

[
  {
    "Compound": "CC(C)[C@H](NC(=O)[C@H](CC(=O)O)NC(=O)CNC(=O)[C@H](CCCNC(=N)N)NC(=O)COc1ccc2c(c1)CC[C@@H]1[C@@H]2CC[C@]2(C)C(=O)CC[C@@H]12)C(=O)O (X2-RGDV-OH)",
    "Assigned Class": 0.0
  },
  {
    "Compound": "C[C@]12CC[C@@H]3c4ccc(O)cc4CC[C@H]3[C@@H]1CC[C@@H]2OC(=O)CCC(=O)N[C@@H](CCCNC(=N)N)C(=O)NCC(=O)N[C@@H](CC(=O)O)C(=O)N[C@@H](CO)C(=O)O ({Succinyl(O17-estradiol)}-RGDS-OH)",
    "Assigned Class": 0.0
  },
  {
    "Compound": "C[C@]12CC[C@@H]3c4ccc(O)cc4CC[C@H]3[C@@H]1CC[C@@H]2OC(=O)CCC(=O)N[C@@H](CCCNC(=N)N)C(=O)NCC(=O)N[C@@H](CC(=O)O)C(=O)N[C@@H](Cc1ccccc1)C(=O)O ({Succinyl(O17-estradiol)}-RGDF-OH)",
    "Assigned Class": 1.0
  }
]

IN: Assess whether reported Activity for N=C(N)NCCC[C@H](N)C(=O)NCC(=O)N[C@@H](CC(=O)O)C(=O)N[C@@H](Cc1ccccc1)C(=O)O (H-RGDF-OH) sits at 60 mg or higher.
OUT: 1.0

IN: Assess whether reported Activity for C[C@]12CC[C@@H]3c4ccc(OCC(=O)N[C@@H](CCCNC(=N)N)C(=O)NCC(=O)N[C@@H](CC(=O)O)C(=O)N[C@@H](Cc5ccccc5)C(=O)O)cc4CC[C@H]3[C@@H]1CCC2=O (X2-RGDF-OH) sits at 60 mg or higher.
OUT: 0.0
